target: carboxylic acid reductase (aryl aldehyde oxidoreductase) (Nocardia iowensis); experiment: Substrate specificity of crude carboxylic acid reductase (100,000×g supernatant); type: biochemical, Nocardia sp. NRRL 5646; parameters: Crude enzyme preparations consisting of 100,000×g supernatants were used in this study; endogenous in cells; host or cells: Nocardia sp; NRRL 5646, crude 100,000×g supernatant; conditions: 5 mM substrate, 0.15 mM NADPH, 1 mM ATP, 50 mM Tris-HCl pH 7.5; percentage of the initial rate of benzoate reduction
Sequence (Q6RKB1 whole entry): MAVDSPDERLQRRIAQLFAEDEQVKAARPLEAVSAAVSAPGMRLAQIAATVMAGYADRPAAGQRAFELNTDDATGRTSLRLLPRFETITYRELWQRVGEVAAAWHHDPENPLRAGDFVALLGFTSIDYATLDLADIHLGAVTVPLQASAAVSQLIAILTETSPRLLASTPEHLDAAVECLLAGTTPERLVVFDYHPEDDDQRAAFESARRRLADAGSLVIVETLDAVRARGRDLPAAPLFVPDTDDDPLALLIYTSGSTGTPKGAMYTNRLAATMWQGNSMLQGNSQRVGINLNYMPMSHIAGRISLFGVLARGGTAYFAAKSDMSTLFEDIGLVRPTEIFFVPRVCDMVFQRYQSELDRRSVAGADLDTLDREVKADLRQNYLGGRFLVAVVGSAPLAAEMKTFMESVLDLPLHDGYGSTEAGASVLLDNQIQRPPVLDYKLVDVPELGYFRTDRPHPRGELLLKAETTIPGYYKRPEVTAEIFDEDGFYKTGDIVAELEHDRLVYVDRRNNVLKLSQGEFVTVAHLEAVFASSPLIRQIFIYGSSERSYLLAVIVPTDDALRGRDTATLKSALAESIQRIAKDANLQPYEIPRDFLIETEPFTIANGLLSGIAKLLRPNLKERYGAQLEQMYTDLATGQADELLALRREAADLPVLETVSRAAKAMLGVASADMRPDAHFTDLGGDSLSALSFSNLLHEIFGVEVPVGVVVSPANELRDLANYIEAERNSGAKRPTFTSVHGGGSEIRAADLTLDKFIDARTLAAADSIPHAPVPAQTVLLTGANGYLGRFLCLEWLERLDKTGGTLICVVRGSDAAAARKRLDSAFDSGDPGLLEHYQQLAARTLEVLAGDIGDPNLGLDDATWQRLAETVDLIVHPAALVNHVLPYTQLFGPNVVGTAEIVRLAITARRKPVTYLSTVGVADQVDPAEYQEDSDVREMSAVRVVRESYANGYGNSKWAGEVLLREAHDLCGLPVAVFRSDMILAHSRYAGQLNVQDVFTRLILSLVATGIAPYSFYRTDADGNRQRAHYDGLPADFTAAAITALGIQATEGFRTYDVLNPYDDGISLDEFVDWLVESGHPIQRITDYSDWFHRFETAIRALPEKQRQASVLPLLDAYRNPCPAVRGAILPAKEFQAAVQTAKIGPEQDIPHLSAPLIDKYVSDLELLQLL
Quick rule for you: Relative Activity at 6 percentage or higher means met, lower means not met.

Ask | Exam item: decide whether the reported Relative Activity for CC(=O)Nc1ccccc1C(=O)O is at least 6 percentage.
Reply | not met

Ask | Now consider Cc1ccc(C(=O)O)cc1 and answer again.
Reply | met

Ask | Could you do the same for O=C(O)CC(C(=O)O)c1ccccc1 (stereo not drawn) , please?
Reply | met

Ask | Please do the same for Cc1cccc(C(=O)O)c1 as well.
Reply | not met

Ask | Do the same for O=C(O)c1cccc(O)c1 [3-hydroxyl-benzoic acid] please
Reply | met

Data provenance is patent US6261814A.
